The origin of these recorded values is patent US20250188153A1.

IC50, plaque-reduction neutralization of hMPV CAN/97-83 overview
# TARGET: hMPV F protein of hMPV CAN/97-83 (genotype A) (human metapneumovirus, UniProt Q6WB98 19-539)
# Sequence (Q6WB98 19-539): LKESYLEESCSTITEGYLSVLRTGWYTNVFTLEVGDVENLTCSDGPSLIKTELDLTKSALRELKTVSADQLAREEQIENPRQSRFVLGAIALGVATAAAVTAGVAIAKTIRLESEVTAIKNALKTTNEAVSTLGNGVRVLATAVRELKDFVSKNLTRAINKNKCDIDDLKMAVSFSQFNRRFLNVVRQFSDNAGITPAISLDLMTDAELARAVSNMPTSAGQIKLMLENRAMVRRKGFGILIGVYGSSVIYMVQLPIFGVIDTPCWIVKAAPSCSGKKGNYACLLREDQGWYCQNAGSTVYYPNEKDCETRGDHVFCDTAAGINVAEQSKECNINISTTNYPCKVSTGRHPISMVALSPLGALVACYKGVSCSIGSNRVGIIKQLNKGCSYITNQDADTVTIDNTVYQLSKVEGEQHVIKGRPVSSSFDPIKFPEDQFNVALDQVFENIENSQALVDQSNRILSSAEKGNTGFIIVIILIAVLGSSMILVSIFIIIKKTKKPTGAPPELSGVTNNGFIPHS
# RUN_DESCRIPTION: cell-based or functional assay
MEASURE_NAME: IC50, plaque-reduction neutralization of hMPV CAN/97-83

BINDER | TEST_VALUE
MPV491 (antibody, V domains shown) VH: QVQLQESGPGLVKSSQTLSLTCTVSGGSISSVTSHWTWIRQHPGKGLEWIGYIFSSGTTYYSPSLRSRLTMSVDTSKNQFSLQLSSVTAADTAMYYCARGIYCGDSCYKGTDYWGRGTLVTVSS VL: IRLMTQTPVTLPVTPGEPASISCRSSQSLLHSNGYNYLDWYLQKPGQSPQLLIYRGSTRASGVPDRFSGSGSGTEFTLKISRVEAEDVGVYYCMQGLQTPYTFGQGTKLESR | 5.7 µg/mL
MPV487 (antibody, V domains shown) VH: EVQLLESGGGLVQPGRSLRLSCTASGFTFDDYAMHWVRQLPGKGLEWVSGISWNSDNIGYADSVKGRFTISRDNGKNSLYLQMNSLRAEDTAFYYCAKDVRIDYDLLIGHIDYWGPGTLVTVSS VL: TQSPVTLSLSPGERATLSCRASQSFGGYCAWYQQKPGQSPRLLIYDASNRATGVPARFSGSGSGTDFTLTISSLEPEDSAVYFCQQRGNWPIFGQGTRLEI | 0.003 µg/mL
MPV478 (antibody, V domains shown) VH: EVQLVQSGAEVKKPGASVKVSCNASGYTFTGYYIHWVRQAPGQGLEWMGWINPRSGGTNYAQKFQGRVTLTRDTSITTAYMDVTRLRPDDTAVYYCATTREGIVLMPRGRGDDALDTWGQGTTVIVSS VL: DIVMTQSPVSLTVSLGERATINCKSSQSVLSTSNNENYLAWYQQKPGQPPNLLIYWASTRESGVPDRFSGSGSGTDFTLTISSLQAEDVAVYYCQQYFATPITFGPGTKVDVK | 0.21 µg/mL
